biological target: CYP2D6 (Homo sapiens, UniProt P10635); assay: CYP inhibition in pooled human liver microsomes, CYP2D6; assay type: biochemical; conditions: CYP2D6, Dextromethorphandextrorphan
Sequence (P10635 whole entry): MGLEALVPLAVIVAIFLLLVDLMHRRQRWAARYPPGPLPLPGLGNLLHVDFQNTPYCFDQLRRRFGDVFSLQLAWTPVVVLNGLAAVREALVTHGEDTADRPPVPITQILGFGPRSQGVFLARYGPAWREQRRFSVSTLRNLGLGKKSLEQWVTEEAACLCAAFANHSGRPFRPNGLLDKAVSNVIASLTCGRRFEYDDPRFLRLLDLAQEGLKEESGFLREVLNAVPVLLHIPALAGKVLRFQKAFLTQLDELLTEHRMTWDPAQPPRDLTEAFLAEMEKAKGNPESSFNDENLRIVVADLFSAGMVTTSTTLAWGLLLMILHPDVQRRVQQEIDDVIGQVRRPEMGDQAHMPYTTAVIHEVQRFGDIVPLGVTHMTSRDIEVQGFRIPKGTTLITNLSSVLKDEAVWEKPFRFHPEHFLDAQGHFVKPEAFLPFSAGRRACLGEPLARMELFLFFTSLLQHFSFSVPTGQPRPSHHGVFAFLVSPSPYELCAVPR
Quantity name: IC50 (µM)
Give bare numbers, in µM.

Problem: Request the reported IC50 associated with `CC1(C)[C@@H](O)CC[C@]2(C)[C@H]3C[C@@H](O)[C@@H]4[C@@H]([C@@](C)(O)CCCNCc5ccccc5)CC[C@@]4(C)[C@]3(C)CC[C@@H]12`
Result: 11.8

----------
target: UniProtKB P08684; assay: CYP inhibition in pooled human liver microsomes, CYP3A4; type: biochemical; conditions: CYP3A4, Midazolam 1′-hydroxylation
Sequence (P08684 whole entry): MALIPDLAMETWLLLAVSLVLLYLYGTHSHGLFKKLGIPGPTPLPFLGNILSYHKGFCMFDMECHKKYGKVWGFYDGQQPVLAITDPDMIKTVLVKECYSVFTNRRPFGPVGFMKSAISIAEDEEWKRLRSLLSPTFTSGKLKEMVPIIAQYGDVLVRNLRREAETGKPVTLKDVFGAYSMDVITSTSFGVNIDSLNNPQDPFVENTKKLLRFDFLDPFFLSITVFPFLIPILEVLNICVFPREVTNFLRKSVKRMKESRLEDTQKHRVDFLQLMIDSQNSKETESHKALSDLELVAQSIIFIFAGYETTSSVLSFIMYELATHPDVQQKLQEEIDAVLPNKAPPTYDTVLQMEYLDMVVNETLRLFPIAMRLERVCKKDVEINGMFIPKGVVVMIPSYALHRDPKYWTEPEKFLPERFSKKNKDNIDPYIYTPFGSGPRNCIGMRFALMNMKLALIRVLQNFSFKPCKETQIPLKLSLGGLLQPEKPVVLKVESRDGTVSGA
Quantity name: pIC50
One number for each entry, as −log10 of the molar value.

Problem: Request the reported pIC50 associated with CC1(C)[C@@H](O)CC[C@]2(C)[C@H]3C[C@@H](O)[C@@H]4[C@@H]([C@@](C)(O)CCCNCc5ccccc5)CC[C@@]4(C)[C@]3(C)CC[C@@H]12 [PPD12]
Result: 5.99

----------
tested on: KB/VCR cells; test: cells; type: cell-based; details: Homo sapiens, 72 h, read-out: IC50 ± SD
Quantity name: IC50 (µM)
Answers are plain numbers, in µM.

Problem: Request the reported IC50 associated with COc1cccc2c1C(=O)c1c(O)c3c(c(O)c1C2=O)C[C@@](O)(C(=O)CO)C[C@@H]3O[C@H]1C[C@H](N)[C@H](O)[C@H](C)O1 [ADM, Adriamycin]
Result: 1.52

----------
biological target: CYP1A2 (Homo sapiens); experiment: CYP inhibition in pooled human liver microsomes, CYP1A2; format: biochemical; conditions: CYP1A2, Phenacetin 0-deethylation
Sequence (P05177 whole entry): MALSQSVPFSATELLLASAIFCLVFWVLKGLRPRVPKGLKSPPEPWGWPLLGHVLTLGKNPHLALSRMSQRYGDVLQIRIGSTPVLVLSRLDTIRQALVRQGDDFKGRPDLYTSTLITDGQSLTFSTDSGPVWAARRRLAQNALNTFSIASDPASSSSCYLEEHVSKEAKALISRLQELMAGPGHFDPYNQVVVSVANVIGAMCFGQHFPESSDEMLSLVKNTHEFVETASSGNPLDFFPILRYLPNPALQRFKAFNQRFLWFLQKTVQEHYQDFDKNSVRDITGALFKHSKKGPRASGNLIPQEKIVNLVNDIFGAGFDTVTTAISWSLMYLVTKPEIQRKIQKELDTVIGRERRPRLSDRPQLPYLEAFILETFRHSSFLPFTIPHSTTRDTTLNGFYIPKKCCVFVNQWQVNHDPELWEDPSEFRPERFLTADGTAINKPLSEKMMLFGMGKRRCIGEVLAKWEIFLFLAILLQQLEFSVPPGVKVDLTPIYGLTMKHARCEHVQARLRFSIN
pIC50: −log10 of the molar value.
Quantity name: pIC50

Problem: Request the reported pIC50 associated with `CC1(C)[C@@H](O)CC[C@]2(C)[C@H]3C[C@@H](O)[C@@H]4[C@@H]([C@@](C)(O)CCCNCc5ccccc5)CC[C@@]4(C)[C@]3(C)CC[C@@H]12`
Result: < 4.48

----------
tested on: KB cells; test: cells; format: cell-based; settings: Homo sapiens, 48 h, read-out: IC50 ± SD
Quantity name: IC50
Please state the value followed by its unit.

Problem: Request the reported IC50 associated with `COc1cccc2c1C(=O)c1c(O)c3c(c(O)c1C2=O)C[C@@](O)(C(=O)CO)C[C@@H]3O[C@H]1C[C@H](N)[C@H](O)[C@H](C)O1`
Result: 390 nM

----------
biological target: CYP2C9 (Homo sapiens, UniProt P11712); experiment: CYP inhibition in pooled human liver microsomes, CYP2C9; assay type: biochemical; details: CYP2C9, Diclofenac4′-hydroxylation
Sequence (P11712 whole entry): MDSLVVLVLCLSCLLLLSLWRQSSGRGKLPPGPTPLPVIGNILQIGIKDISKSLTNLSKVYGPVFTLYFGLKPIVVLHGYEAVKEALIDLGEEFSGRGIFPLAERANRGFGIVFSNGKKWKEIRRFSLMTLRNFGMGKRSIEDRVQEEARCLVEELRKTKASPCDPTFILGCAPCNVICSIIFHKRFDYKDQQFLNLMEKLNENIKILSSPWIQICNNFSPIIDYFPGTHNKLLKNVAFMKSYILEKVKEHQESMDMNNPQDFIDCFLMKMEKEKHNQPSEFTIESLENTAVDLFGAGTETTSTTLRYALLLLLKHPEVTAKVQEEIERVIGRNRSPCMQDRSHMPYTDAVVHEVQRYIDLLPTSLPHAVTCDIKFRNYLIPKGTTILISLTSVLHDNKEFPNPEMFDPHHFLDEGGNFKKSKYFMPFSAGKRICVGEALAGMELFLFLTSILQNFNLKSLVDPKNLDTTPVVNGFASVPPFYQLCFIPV
pIC50: −log10 of the molar value.
Quantity name: pIC50

Problem: Request the reported pIC50 associated with `CC1(C)[C@@H](O)CC[C@]2(C)[C@H]3C[C@@H](O)[C@@H]4[C@@H]([C@@](C)(O)CCCNCc5ccccc5)CC[C@@]4(C)[C@]3(C)CC[C@@H]12`
Result: < 4.48

----------
biological target: UniProt P10632; experiment: CYP inhibition in pooled human liver microsomes, CYP2C8; assay type: biochemical; details: CYP2C8, Amodiaquine N-deethylation
Sequence (P10632 whole entry): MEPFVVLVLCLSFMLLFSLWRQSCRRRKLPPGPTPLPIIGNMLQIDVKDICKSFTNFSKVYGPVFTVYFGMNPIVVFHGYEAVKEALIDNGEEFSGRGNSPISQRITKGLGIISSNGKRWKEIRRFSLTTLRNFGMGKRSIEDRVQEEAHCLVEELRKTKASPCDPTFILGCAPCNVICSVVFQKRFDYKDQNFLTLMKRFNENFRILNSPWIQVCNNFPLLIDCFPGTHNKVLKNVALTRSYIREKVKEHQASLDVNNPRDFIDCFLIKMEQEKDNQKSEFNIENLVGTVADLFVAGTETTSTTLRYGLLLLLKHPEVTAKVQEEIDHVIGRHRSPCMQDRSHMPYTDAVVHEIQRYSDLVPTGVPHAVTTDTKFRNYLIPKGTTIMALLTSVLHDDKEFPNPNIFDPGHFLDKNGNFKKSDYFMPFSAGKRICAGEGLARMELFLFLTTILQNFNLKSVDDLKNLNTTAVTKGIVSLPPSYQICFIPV
Quantity name: IC50 (µM)
Numbers only, in µM.

Problem: Request the reported IC50 associated with CC1(C)[C@@H](O)CC[C@]2(C)[C@H]3C[C@@H](O)[C@@H]4[C@@H]([C@@](C)(O)CCCNCc5ccccc5)CC[C@@]4(C)[C@]3(C)CC[C@@H]12 [PPD12]
Result: 9.57
